The following binders are shown together with reported Anti-CD28 Fab (SEQ ID NOs: 202, 203) signal values.
Target: T1, Anti-CD28 Fab (SEQ ID NOs: 202, 203)
T1 construct: biotinylated and captured on neutravidin coated plates in the phage ELISA
T1 sequence (VH, as listed by the source, chain 1 of 2): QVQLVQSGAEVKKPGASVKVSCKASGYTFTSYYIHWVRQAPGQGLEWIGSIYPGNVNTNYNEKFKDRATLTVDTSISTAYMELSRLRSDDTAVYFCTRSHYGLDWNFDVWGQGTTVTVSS
T1 sequence (VL, as listed by the source, chain 2 of 2): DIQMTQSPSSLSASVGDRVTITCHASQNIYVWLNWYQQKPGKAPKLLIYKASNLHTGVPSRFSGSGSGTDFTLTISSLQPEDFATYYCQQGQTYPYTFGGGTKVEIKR
Experiment: phage binding ELISA, Fab on plate;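 note: clonal phage supernatant ELISA, wells preincubated with CD28 antigen or blocking buffer only, then bound phage detected using HRP-linked anti-M13 antibody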
experimental-endpoint: Anti-CD28 Fab (SEQ ID NOs: 202, 203) signal

> print(dat)
                        binder  quantitative.result
1  TCAAGANYPWPLCL [Phage-1027]                 1.75
2  GCAAGAHYPWPFCL [Phage-1025]                 1.76
3   TCAAGATYEWPYCF [Phage-980]                 1.96
